# assayedSystem: 3-hydroxy-3-methylglutaryl-coenzyme A reductase (Rattus norvegicus)
# assayInfo: Tested in vivo for the inhibition of cholesterol biosynthesis in chow-fed rats at 1.0 mg/kg.
# Type: functional, organism-based
# Set-up: dose 1 mg/kg
// map inhibition onto a label; ranges LOW (below 70%), MEDIUM (70% to below 80%), HIGH (80% or more)

compound=CC(C)c1nn(-c2cnccn2)c(-c2ccc(F)cc2)c1/C=C/[C@@H](O)C[C@@H](O)CC(=O)[O-].[Na+] answerlabel=MEDIUM
compound=CC(C)c1nn(-c2nc3ccccc3s2)c(-c2ccc(F)cc2)c1/C=C/[C@@H](O)C[C@@H](O)CC(=O)O answerlabel=LOW
compound=CC(C)c1nn(-c2ccccn2)c(-c2ccc(F)cc2)c1/C=C/[C@@H](O)C[C@@H](O)CC(=O)O answerlabel=HIGH
compound=CC(C)c1nn(-c2ccc3ccccc3n2)c(-c2ccc(F)cc2)c1/C=C/[C@@H]1C[C@@H](O)CC(=O)O1 answerlabel=MEDIUM
compound=CC[C@H](C)C(=O)O[C@H]1C[C@H](O)C=C2C=C[C@H](C)[C@H](CC[C@@H](O)C[C@@H](O)CC(=O)O)[C@H]21 answerlabel=LOW
compound="CC(C)c1nn(-c2ccccn2)c(-c2ccc(F)cc2)c1CCC1C[C@@H](O)CC(=O)O1 (some centres not stated)" answerlabel=LOW
compound="CC(C)c1nn(-c2cnccn2)c(-c2ccc(F)cc2)c1/C=C/[C@@H]1C[C@@H](O)CC(=O)O1 (stereo in doubt; 20b)" answerlabel=HIGH
compound=CC(C)c1nn(-c2nc3ccccc3s2)c(-c2ccc(F)cc2)c1/C=C/[C@@H]1C[C@@H](O)CC(=O)O1 answerlabel=LOW
compound=CC(C)c1nn(-c2ccccc2)c(-c2ccc(F)cc2)c1/C=C/[C@@H](O)C[C@@H](O)CC(=O)O answerlabel=HIGH
compound="CC(C)c1nn(-c2ccccn2)c(-c2ccc(F)cc2)c1/C=C/[C@@H]1C[C@@H](O)CC(=O)O1 (stereo in doubt; 10a)" answerlabel=HIGH
compound="CC(C)c1nn(-c2ccccn2)c(-c2ccc(F)cc2)c1/C=C/[C@@H]1C[C@@H](O)CC(=O)O1 (stereo in doubt; 20a)" answerlabel=HIGH
compound=O=C1C[C@H](O)C[C@@H](/C=C/c2c(C(F)(F)F)nn(-c3ccccn3)c2-c2ccc(F)cc2)O1 answerlabel=LOW

###

# inhibition per entry
# assayedSystem: 3-hydroxy-3-methylglutaryl-coenzyme A reductase (Rattus norvegicus)
# assayInfo: Tested in vivo for the inhibition of cholesterol biosynthesis in chow-fed rats at 1.0 mg/kg.
# Type: functional, organism-based
# Set-up: dose 1 mg/kg
reportedMetric: inhibition (%)

compound="CC(C)c1nn(-c2ccccn2)c(-c2ccc(F)cc2)c1CCC(O)C[C@@H](O)CC(=O)O (stereo not given in full)" reportedmetric=inhibition unittag=% resultvalue=68
compound="CC(C)c1nn(-c2cnccn2)c(-c2ccc(F)cc2)c1/C=C/[C@@H]1C[C@@H](O)CC(=O)O1 (stereo in doubt; 10b)" reportedmetric=inhibition unittag=% resultvalue=80
compound=O=C(O)C[C@H](O)C[C@H](O)/C=C/c1c(C(F)(F)F)nn(-c2ccccn2)c1-c1ccc(F)cc1 reportedmetric=inhibition unittag=% resultvalue=81
compound=CC(C)c1nn(-c2ccc3ccccc3n2)c(-c2ccc(F)cc2)c1/C=C/[C@@H](O)C[C@@H](O)CC(=O)O reportedmetric=inhibition unittag=% resultvalue=69
compound="CC(C)c1nn(-c2ccccc2)c(-c2ccc(F)cc2)c1CCC(O)C[C@@H](O)CC(=O)O (stereo not given in full)" reportedmetric=inhibition unittag=% resultvalue=72
